Measured Kb binding constant (BSA), listed per entry.
Target: BSA (Bos taurus, UniProt P02769)
Construct: purchased Himedia Chemicals
Sequence (P02769 25-607): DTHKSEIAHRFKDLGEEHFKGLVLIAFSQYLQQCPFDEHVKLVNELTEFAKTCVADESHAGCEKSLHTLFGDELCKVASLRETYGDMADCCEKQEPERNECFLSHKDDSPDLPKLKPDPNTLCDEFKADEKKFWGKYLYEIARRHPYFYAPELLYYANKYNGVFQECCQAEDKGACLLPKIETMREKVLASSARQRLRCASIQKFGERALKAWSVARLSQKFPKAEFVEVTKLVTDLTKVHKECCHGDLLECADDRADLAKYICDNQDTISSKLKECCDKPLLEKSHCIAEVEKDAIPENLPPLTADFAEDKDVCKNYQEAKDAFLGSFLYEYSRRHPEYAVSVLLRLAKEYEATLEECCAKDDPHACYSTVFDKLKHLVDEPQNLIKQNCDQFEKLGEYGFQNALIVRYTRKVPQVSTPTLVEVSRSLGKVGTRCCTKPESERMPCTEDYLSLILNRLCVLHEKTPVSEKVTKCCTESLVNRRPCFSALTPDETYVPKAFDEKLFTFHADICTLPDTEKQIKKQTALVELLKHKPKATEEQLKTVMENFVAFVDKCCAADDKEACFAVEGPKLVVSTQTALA
Test: BSA fluorescence quenching titration
Format: binding, bovine
Settings: Scatchard plot, 298 K, no site probe
OBSERVABLE: Kb binding constant (BSA) (M⁻¹)

> print(dat)
                                   molecule                 observable  recorded.measurement
1  [O-]C(=NN=Cc1cc(F)ccc1[O-])c1ccncc1.[O-]C(=NN=Cc1cc(F)ccc1[O-])c1ccncc1.[Ti+4]  Kb binding constant (BSA)                   110
2  Brc1ccc2c(c1)C=NN=C(c1ccncc1)[O][Ti]1([O]C(c3ccncc3)=NN=Cc3cc(Br)ccc3[O]1)[O]2 (stereo not drawn)  Kb binding constant (BSA)                   140
3  [O-]C(=NN=Cc1ccccc1[O-])c1ccncc1.[O-]C(=NN=Cc1ccccc1[O-])c1ccncc1.[Ti+4]  Kb binding constant (BSA)                   400
4  [O-]C(=NN=Cc1cc(Cl)ccc1[O-])c1ccncc1.[O-]C(=NN=Cc1cc(Cl)ccc1[O-])c1ccncc1.[Ti+4]  Kb binding constant (BSA)                   650
5  COc1cccc(C=NN=C([O-])c2ccncc2)c1[O-].COc1cccc(C=NN=C([O-])c2ccncc2)c1[O-].[Ti+4]  Kb binding constant (BSA)                   360
6  [O-]C(=NN=Cc1c([O-])ccc2ccccc12)c1ccncc1.[O-]C(=NN=Cc1c([O-])ccc2ccccc12)c1ccncc1.[Ti+4]  Kb binding constant (BSA)                   470

====

Catalogue of IC50 readings, one per entry.
Assay: DPPH radical scavenging assay
Assay type: biochemical
Conditions: 40 minutes, absorbance at 517 nm
OBSERVABLE: IC50 (µM)

> print(dat)
                                   molecule  observable  recorded.measurement
1  COc1cccc(C=NN=C([O-])c2ccncc2)c1[O-].COc1cccc(C=NN=C([O-])c2ccncc2)c1[O-].[Ti+4] [Ti-3-IO]        IC50                  44.6
2  [O-]C(=NN=Cc1cc(Cl)ccc1[O-])c1ccncc1.[O-]C(=NN=Cc1cc(Cl)ccc1[O-])c1ccncc1.[Ti+4] [Ti-5-ICl]        IC50                  72.3
3  [O-]C(=NN=Cc1ccccc1[O-])c1ccncc1.[O-]C(=NN=Cc1ccccc1[O-])c1ccncc1.[Ti+4] [Ti-1-IS]        IC50                    92
4  Brc1ccc2c(c1)C=NN=C(c1ccncc1)[O][Ti]1([O]C(c3ccncc3)=NN=Cc3cc(Br)ccc3[O]1)[O]2 (stereo not drawn) [Ti-6-IBr]        IC50                  74.8
5  [O-]C(=NN=Cc1cc(F)ccc1[O-])c1ccncc1.[O-]C(=NN=Cc1cc(F)ccc1[O-])c1ccncc1.[Ti+4] [Ti-4-IF]        IC50                  82.6
6  [O-]C(=NN=Cc1c([O-])ccc2ccccc12)c1ccncc1.[O-]C(=NN=Cc1c([O-])ccc2ccccc12)c1ccncc1.[Ti+4] [Ti-2-IN]        IC50                   128

====

Tested on: HeLa cells
Assay: MTT cytotoxicity assay, HeLa
Type: cell-based, human
Conditions: 48 h of drug exposure
Decide using IC50 alone. Strictly below 60 µM: True. Equal to or above 60 µM: False.

> print(dat)
                                   compound      system    cat
1  [O-]C(=NN=Cc1cc(Cl)ccc1[O-])c1ccncc1.[O-]C(=NN=Cc1cc(Cl)ccc1[O-])c1ccncc1.[Ti+4]  HeLa cells   True
2  [O-]C(=NN=Cc1cc(F)ccc1[O-])c1ccncc1.[O-]C(=NN=Cc1cc(F)ccc1[O-])c1ccncc1.[Ti+4]  HeLa cells   True
3  COc1cccc(C=NN=C([O-])c2ccncc2)c1[O-].COc1cccc(C=NN=C([O-])c2ccncc2)c1[O-].[Ti+4]  HeLa cells   True
4  [O-]C(=NN=Cc1c([O-])ccc2ccccc12)c1ccncc1.[O-]C(=NN=Cc1c([O-])ccc2ccccc12)c1ccncc1.[Ti+4]  HeLa cells  False
5  Brc1ccc2c(c1)C=NN=C(c1ccncc1)[O][Ti]1([O]C(c3ccncc3)=NN=Cc3cc(Br)ccc3[O]1)[O]2 (stereo not drawn)  HeLa cells  False

====

Experiment: Stability studies by UV-vis in DMSO:H2O and aqueous GSH medium
Format: physicochemical
Settings: DMSO : H2O (1 : 9, v/v) and aqueous GSH medium, over 72 hours
OBSERVABLE: Stability

> print(dat)
                            compound.smiles  recorded.measurement
1  [O-]C(=NN=Cc1ccccc1[O-])c1ccncc1.[O-]C(=NN=Cc1ccccc1[O-])c1ccncc1.[Ti+4]   did not change much
2  [O-]C(=NN=Cc1c([O-])ccc2ccccc12)c1ccncc1.[O-]C(=NN=Cc1c([O-])ccc2ccccc12)c1ccncc1.[Ti+4]   did not change much

====

Documented IC50 across a set of compounds
System: HEK-293 cells
Experiment: MTT cytotoxicity assay, HEK-293
Format: cell-based, human
Conditions: 48 h of drug exposure
OBSERVABLE: IC50

> print(dat)
                                   compound  observable  recorded.measurement
1  [O-]C(=NN=Cc1c([O-])ccc2ccccc12)c1ccncc1.[O-]C(=NN=Cc1c([O-])ccc2ccccc12)c1ccncc1.[Ti+4] [Ti-2-IN]        IC50              > 250 µM
2  [O-]C(=NN=Cc1cc(Cl)ccc1[O-])c1ccncc1.[O-]C(=NN=Cc1cc(Cl)ccc1[O-])c1ccncc1.[Ti+4] [Ti-5-ICl]        IC50              > 250 µM

====

Experiment: n-Octanol/water partition coefficient, shake flask method
Assay type: physicochemical
Conditions: partition coefficient of n-octanol/water
OBSERVABLE: Log Po/w

> print(dat)
                                   compound  recorded.measurement
1  [O-]C(=NN=Cc1cc(Cl)ccc1[O-])c1ccncc1.[O-]C(=NN=Cc1cc(Cl)ccc1[O-])c1ccncc1.[Ti+4]                  0.31
2  [O-]C(=NN=Cc1cc(F)ccc1[O-])c1ccncc1.[O-]C(=NN=Cc1cc(F)ccc1[O-])c1ccncc1.[Ti+4]                  0.12
3  COc1cccc(C=NN=C([O-])c2ccncc2)c1[O-].COc1cccc(C=NN=C([O-])c2ccncc2)c1[O-].[Ti+4]                  0.13
4  Brc1ccc2c(c1)C=NN=C(c1ccncc1)[O][Ti]1([O]C(c3ccncc3)=NN=Cc3cc(Br)ccc3[O]1)[O]2 (stereo not drawn)                  0.15
5  [O-]C(=NN=Cc1ccccc1[O-])c1ccncc1.[O-]C(=NN=Cc1ccccc1[O-])c1ccncc1.[Ti+4]                  0.87
6  [O-]C(=NN=Cc1c([O-])ccc2ccccc12)c1ccncc1.[O-]C(=NN=Cc1c([O-])ccc2ccccc12)c1ccncc1.[Ti+4]                  0.78

====

Kb binding constant, BSA+Ibuprofen reference
Biological target: BSA (Bos taurus, UniProt P02769)
Construct: purchased Himedia Chemicals
Experiment: BSA site marker (ibuprofen, warfarin) fluorescence quenching
Type: binding, bovine
Conditions: 298 K, site probe ibuprofen
OBSERVABLE: Kb binding constant, BSA+Ibuprofen

> print(dat)
                                   molecule  recorded.measurement
1  COc1cccc(C=NN=C([O-])c2ccncc2)c1[O-].COc1cccc(C=NN=C([O-])c2ccncc2)c1[O-].[Ti+4]               500 M⁻¹
2  Brc1ccc2c(c1)C=NN=C(c1ccncc1)[O][Ti]1([O]C(c3ccncc3)=NN=Cc3cc(Br)ccc3[O]1)[O]2 (stereo not drawn)               540 M⁻¹
3  [O-]C(=NN=Cc1cc(Cl)ccc1[O-])c1ccncc1.[O-]C(=NN=Cc1cc(Cl)ccc1[O-])c1ccncc1.[Ti+4]               350 M⁻¹
4  [O-]C(=NN=Cc1ccccc1[O-])c1ccncc1.[O-]C(=NN=Cc1ccccc1[O-])c1ccncc1.[Ti+4]               340 M⁻¹
5  [O-]C(=NN=Cc1c([O-])ccc2ccccc12)c1ccncc1.[O-]C(=NN=Cc1c([O-])ccc2ccccc12)c1ccncc1.[Ti+4]               150 M⁻¹
6  [O-]C(=NN=Cc1cc(F)ccc1[O-])c1ccncc1.[O-]C(=NN=Cc1cc(F)ccc1[O-])c1ccncc1.[Ti+4]               370 M⁻¹

Data origin: paper PMC12264794
